Listed here: items and their measured pIC50.
assayedSystem: UniProtKB O00763
Sequence (O00763 whole entry): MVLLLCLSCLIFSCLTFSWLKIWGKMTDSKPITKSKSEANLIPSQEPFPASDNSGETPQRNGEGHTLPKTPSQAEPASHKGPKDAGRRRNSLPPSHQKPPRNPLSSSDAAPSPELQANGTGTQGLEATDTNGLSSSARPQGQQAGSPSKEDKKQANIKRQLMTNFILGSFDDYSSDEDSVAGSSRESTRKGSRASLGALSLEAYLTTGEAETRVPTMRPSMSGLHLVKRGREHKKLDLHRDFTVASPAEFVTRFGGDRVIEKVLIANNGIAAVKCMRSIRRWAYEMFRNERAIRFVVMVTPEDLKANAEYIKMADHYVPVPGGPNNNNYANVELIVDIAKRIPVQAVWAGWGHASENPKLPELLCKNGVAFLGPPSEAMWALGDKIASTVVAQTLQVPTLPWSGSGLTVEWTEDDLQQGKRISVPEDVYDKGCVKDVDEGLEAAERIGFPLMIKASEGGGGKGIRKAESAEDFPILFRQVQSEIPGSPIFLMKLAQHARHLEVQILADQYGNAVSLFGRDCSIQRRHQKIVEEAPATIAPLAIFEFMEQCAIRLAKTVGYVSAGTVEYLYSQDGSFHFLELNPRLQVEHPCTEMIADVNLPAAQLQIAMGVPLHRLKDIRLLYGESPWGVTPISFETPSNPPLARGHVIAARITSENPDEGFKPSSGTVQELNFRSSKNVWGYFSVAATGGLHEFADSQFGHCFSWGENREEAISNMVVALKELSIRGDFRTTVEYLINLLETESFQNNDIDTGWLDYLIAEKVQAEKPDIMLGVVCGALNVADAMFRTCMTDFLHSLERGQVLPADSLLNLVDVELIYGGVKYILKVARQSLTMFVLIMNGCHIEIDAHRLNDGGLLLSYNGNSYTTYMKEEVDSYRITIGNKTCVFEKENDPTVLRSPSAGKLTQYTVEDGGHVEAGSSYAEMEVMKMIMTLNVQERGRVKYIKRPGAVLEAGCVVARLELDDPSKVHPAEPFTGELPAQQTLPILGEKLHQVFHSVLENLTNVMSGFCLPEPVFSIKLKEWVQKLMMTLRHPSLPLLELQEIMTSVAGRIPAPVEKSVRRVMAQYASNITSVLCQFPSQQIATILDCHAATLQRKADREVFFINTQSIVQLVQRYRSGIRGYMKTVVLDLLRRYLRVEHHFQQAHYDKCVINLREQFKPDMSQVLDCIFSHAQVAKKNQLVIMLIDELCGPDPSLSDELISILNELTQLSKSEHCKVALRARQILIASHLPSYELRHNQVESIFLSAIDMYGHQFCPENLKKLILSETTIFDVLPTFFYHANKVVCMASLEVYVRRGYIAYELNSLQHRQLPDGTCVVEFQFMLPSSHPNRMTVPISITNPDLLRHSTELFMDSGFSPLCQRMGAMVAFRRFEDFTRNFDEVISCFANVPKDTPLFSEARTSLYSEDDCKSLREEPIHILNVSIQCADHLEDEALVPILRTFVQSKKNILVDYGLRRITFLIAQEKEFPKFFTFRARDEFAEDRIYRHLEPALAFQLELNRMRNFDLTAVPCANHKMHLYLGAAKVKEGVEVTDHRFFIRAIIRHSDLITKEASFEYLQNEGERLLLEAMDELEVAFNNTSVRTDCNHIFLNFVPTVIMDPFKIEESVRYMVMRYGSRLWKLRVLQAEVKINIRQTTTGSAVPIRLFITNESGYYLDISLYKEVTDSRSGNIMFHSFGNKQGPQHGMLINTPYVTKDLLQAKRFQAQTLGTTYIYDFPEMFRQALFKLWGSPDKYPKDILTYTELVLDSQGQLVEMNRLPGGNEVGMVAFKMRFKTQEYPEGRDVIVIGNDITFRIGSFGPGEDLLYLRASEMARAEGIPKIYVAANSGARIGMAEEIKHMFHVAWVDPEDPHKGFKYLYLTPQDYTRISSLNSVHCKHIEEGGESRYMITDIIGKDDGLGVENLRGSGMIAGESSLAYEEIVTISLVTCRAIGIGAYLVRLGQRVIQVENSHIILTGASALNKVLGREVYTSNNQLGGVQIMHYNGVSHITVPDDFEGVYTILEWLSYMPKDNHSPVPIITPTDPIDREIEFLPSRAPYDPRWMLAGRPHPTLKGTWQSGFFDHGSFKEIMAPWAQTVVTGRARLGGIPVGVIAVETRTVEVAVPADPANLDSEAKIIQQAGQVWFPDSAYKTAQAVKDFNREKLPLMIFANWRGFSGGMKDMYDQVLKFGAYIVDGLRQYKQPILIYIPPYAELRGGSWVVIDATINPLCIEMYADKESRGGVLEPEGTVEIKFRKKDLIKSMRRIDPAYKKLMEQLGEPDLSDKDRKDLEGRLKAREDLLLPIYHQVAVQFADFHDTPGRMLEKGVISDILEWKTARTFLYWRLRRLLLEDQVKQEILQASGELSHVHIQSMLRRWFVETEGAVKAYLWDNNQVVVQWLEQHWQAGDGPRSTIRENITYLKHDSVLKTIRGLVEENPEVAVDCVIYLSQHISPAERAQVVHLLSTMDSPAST
measurementNotes: In vitro ACC inhibition assay (ADP-Glo), hACC2
Format: biochemical
testConditions: Table 2a, 5 nM ACC2, 20 μM ATP, 20 μM acetyl-CoA
pIC50: −log10 of the molar value.

Past entries and their recorded results:
COc1ccc(F)cc1[C@H](Cn1c(=O)n(CC(=O)NC(C)C)c(=O)c2c(C)c(-n3nccn3)sc21)OCCO [Compound I-82]
8.30 to 9.00
COc1ccc(F)cc1[C@H](Cn1c(=O)n(C(C)(C)C(=O)N2CCCC2)c(=O)c2c(C)c(-n3nccn3)sc21)OCC(C)(C)O [Compound I-58]
7.40 to 8.00
COc1ccc(F)cc1[C@H](Cn1c(=O)n(C(C)(C)C(=O)NC(C)C)c(=O)c2c(C)c(-n3nccn3)sc21)OC[C@@H](C)O [Compound I-45]
7.40 to 8.00
COc1ccccc1[C@@H](O)Cn1c(=O)n(C(C)(C)C(=O)OCc2ccccc2)c(=O)c2c(C)c(-n3nccn3)sc21 [Compound I-179]
< 7.40
COCCO[C@@H](Cn1c(=O)n([C@H](C)C(=O)N2CCCC2)c(=O)c2c(C)c(-n3nccn3)sc21)c1cc(F)ccc1OC [Compound I-65]
7.40 to 8.00
COc1ccc(F)cc1[C@H](Cn1c(=O)n([C@@H](C)C(=O)NC(C)C)c(=O)c2c(C)c(-n3nccn3)sc21)OC(C)C [Compound I-37]
8.00 to 8.30
CCO[C@@H](Cn1c(=O)n(C(C)(C)C(=O)N2CCCC2)c(=O)c2c(C)c(-n3nccn3)sc21)c1cc(F)ccc1OC [Compound I-42]
8.00 to 8.30
Cc1c(-n2nccn2)sc2c1c(=O)n(C(C)(C)C(=O)NC(C)C)c(=O)n2C[C@H](OC1CCOCC1)c1cc(F)ccc1OCc1ccccc1 [Compound I-107]
8.00 to 8.30

# lookup: UniProtKB O00763 pIC50, key = COc1ccc(F)cc1[C@H](Cn1c(=O)n(C(C)C(=O)N2CCCC2)c(=O)c2c(C)c(-n3nccn3)sc21)OC(C)C (stereo partly shown) [Compound I-40]
8.00 to 8.30

# lookup: UniProtKB O00763 pIC50, key = COc1ccc(F)cc1[C@H](Cn1c(=O)n(C(C)(C)C(=O)N2CCCC2)c(=O)c2c(C)c(-n3nccn3)sc21)OC(C)C [Compound I-7]
8.00 to 8.30

# lookup: UniProtKB O00763 pIC50, key = COc1ccccc1[C@H](Cn1c(=O)n(C(C)(C)C(=O)NCC(C)C)c(=O)c2c(C)c(-n3nccn3)sc21)OC1CCOCC1 [Compound I-13]
8.00 to 8.30

# lookup: UniProtKB O00763 pIC50, key = COc1ccc(F)cc1[C@H](Cn1c(=O)n(C(C)(C)C(=O)O)c(=O)c2c(C)c(-n3nccn3)sc21)OC[C@H](C)C#N [Compound I-148]
8.30 to 9.00

# lookup: UniProtKB O00763 pIC50, key = COc1ccc(F)cc1[C@H](Cn1c(=O)n([C@@H](C)C(=O)N2CCCC2)c(=O)c2c(C)c(-n3nccn3)sc21)OC(C)C [Compound I-39]
8.00 to 8.30

# lookup: UniProtKB O00763 pIC50, key = COc1ccccc1[C@H](Cn1c(=O)n(C(C)(C)C(=O)O)c(=O)c2c(C)c(-n3nccn3)sc21)OC1CCOCC1 [Compound I-96]
8.30 to 9.00

# lookup: UniProtKB O00763 pIC50, key = COc1ccc(F)cc1[C@H](Cn1c(=O)n(C(C)(C)C(N)=O)c(=O)c2c(C)c(-n3nccn3)sc21)OC[C@H](C)C#N [Compound I-153]
8.30 to 9.00
